Target: MMP-13CD (catalytic domain of collagenase 3) (Homo sapiens)
Assay: Thiopeptolide substrate hydrolysis assay, MMP-13CD
Type: biochemical
Settings: thiopeptolide substrate, HEPES pH 7.0, 22° C.; read-out: IC50 (μM) Versus Certain MMPs: MMP-13 CD
Where a name gives a salt, the structure may show the parent alone.
compounds and their reported IC50
Number in µM, nothing else.

Cc1c(=O)n(CCS(=O)(=O)c2ccc(Cl)cc2)c(=O)n2cc(C(=O)NCc3ccncc3)sc12 [Example 83, hydrochloride]	2.6

Shift focus to the following entry.
Query: Requested field: IC50. Item: "COC(=O)c1ccc(Cn2c(=O)c(C)c3sc(C(=O)NCc4ccc(OC)cc4)cn3c2=O)cc1"
Result: 0.0106

---

Biological target: MMP-14CD (catalytic domain of MMP-14) (Homo sapiens)
Assay: Thiopeptolide substrate hydrolysis assay, MMP-14CD
Assay type: biochemical
Conditions: HEPES pH 7.0, 22° C., read-out: IC50 (μM) Versus Certain MMPs: MMP-14 CD
Where a name gives a salt, the structure may show the parent alone.
compounds and their reported IC50

Recorded results for 2 compounds are shown here.
O=C(NCc1ccncc1)c1cn2c(=O)n(Cc3ccccc3)c(=O)cc2s1 [Example 9, hydrochloride]	> 100 µM
O=C(CCc1ccccc1)c1cn2c(=O)n(Cc3ccccc3)c(=O)cc2s1	8.8 µM

Query: Requested field: IC50. Item: "Cc1c(=O)n(Cc2ccc3oc(=O)ccc3c2)c(=O)n2cc(C(=O)NCc3ccc(F)cc3)sc12"
Result: > 30 µM

Query: Requested field: IC50. Item: "Cc1c(=O)n(Cc2ccc(C(=O)O)cc2)c(=O)n2cc(C(=O)NCc3ccc(F)cc3)sc12"
Result: > 100 µM

Query: Requested field: IC50. Item: "O=C(Nc1ccc(-c2ccccc2)cc1)c1cn2c(=O)n(Cc3ccccc3)c(=O)cc2s1"
Result: 7.3 µM

Query: Requested field: IC50. Item: "Cc1c(=O)n(Cc2ccc(C(=O)N3CCOCC3)cc2)c(=O)n2cc(C(=O)NCc3ccc(F)cc3)sc12"
Result: > 30 µM

Query: Requested field: IC50. Item: "Cc1c(=O)n(Cc2ccc(-c3nn[nH]n3)cc2)c(=O)n2cc(C(=O)NCc3ccc(F)cc3)sc12"
Result: > 100 µM

Query: Requested field: IC50. Item: "COC(=O)Nc1cc(Cn2c(=O)c(C)c3sc(C(=O)NCc4ccc(F)cc4)cn3c2=O)on1"
Result: > 30 µM

---

Where a name gives a salt, the structure may show the parent alone.
Test Readout: melting point

O=C(NCc1ccccc1)c1cn2c(=O)n(C(=O)c3ccccc3)c(=O)cc2s1	204 to 207 °C (dec.)
Cc1c(=O)n(Cc2ccc(C#N)cc2)c(=O)n2cc(C(=O)NCc3ccc(F)cc3)sc12	> 220 °C
Cc1c(=O)n(Cc2ccc(C(=O)OC(C)(C)C)cc2)c(=O)n2ccsc12	163 to 165 °C

Query: Requested field: melting point. Item: "O=C(NCc1ccccc1)c1cn2c(=O)n(Cc3ccc(Cl)c(Cl)c3)c(=O)cc2s1"
Result: 216 to 217 °C

Query: Requested field: melting point. Item: "Cc1c(=O)n(Cc2ccccc2)c(=O)n2cc(C(=O)NCc3ccccc3)sc12"
Result: 176 to 178 °C

Query: Requested field: melting point. Item: "COC(=O)c1ccc(Cn2c(=O)c(C)c3sc(C(=O)NCc4ccc(F)cc4)cn3c2=O)cc1"
Result: > 215 °C

Query: Requested field: melting point. Item: "COc1ccc(CNC(=O)c2cn3c(=O)n(Cc4ccc(C(=O)O)cc4)c(=O)c(C)c3s2)cc1"
Result: > 210 °C

Query: Requested field: melting point. Item: "Cc1c(=O)n(Cc2ccccc2)c(=O)n2cc(C(=O)NCc3ccc4[nH]ccc4c3)sc12"
Result: 189 to 191 °C

Query: Requested field: melting point. Item: "COC(=O)c1ccc(Cn2c(=O)c(C)c3sc(C(=O)NCc4ccc(F)cc4)cn3c2=O)cc1Cl"
Result: 176 to 178 °C

Query: Requested field: melting point. Item: O=C(NCc1ccccc1)c1cn2c(=O)n(Cc3ccncc3)c(=O)cc2s1 (as salt: hydrochloride) (hydrate or solvate)
Result: > 210 °C

Query: Requested field: melting point. Item: "Cc1c(=O)[nH]c(=O)n2cc(C(=O)O)sc12"
Result: > 205 °C

---

compounds and their reported IC50
Molecular target: MMP-7FL (full length matrilysin) (Homo sapiens, UniProt P09237)
Sequence (P09237 95-267, species assumed): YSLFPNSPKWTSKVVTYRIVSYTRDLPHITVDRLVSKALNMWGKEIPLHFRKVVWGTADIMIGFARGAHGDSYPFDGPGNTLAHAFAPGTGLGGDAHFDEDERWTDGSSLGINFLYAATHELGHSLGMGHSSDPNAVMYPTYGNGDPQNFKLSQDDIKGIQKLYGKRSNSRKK
Assay: Thiopeptolide substrate hydrolysis assay, MMP-7FL
Assay type: biochemical
Conditions: HEPES pH 7.0, 22° C., read-out: IC50 (μM) Versus Certain MMPs: MMP-07 FL
Counter-ions that a name gives are not always drawn.

Recorded results for 2 compounds are shown here.
Cc1c(=O)n(Cc2ccc(C(=O)OCCN(C)C)cc2)c(=O)n2cc(C(=O)NCc3ccc(F)cc3)sc12 [Example 60]	> 100 µM
CC#CCn1c(=O)c(C)c2sc(C(=O)NCc3ccc(F)cc3)cn2c1=O [Example 79]	> 100 µM

Query: Requested field: IC50. Item: Cc1c(=O)n(Cc2ccc3cc(F)ccc3n2)c(=O)n2cc(C(=O)NCc3ccc(F)cc3)sc12 [Example 77]
Result: > 30 µM

Query: Requested field: IC50. Item: Cc1c(=O)n(Cc2ccc(C#N)cc2)c(=O)n2cc(C(=O)NCc3ccc(F)cc3)sc12 [Example 107]
Result: > 30 µM

Query: Requested field: IC50. Item: O=C(NCc1ccccc1)c1cn2c(=O)n(C(=O)c3ccccc3)c(=O)cc2s1 [Example 11]
Result: > 30 µM

Query: Requested field: IC50. Item: COc1ccc(CNC(=O)c2cn3c(=O)n(Cc4ccccc4)c(=O)c(C)c3s2)cc1 [Example 17]
Result: > 30 µM

Query: Requested field: IC50. Item: O=C(OCc1ccncc1)c1cn2c(=O)n(Cc3ccccc3)c(=O)cc2s1 [Example 3, hydrochloride]
Result: > 100 µM

Query: Requested field: IC50. Item: O=C(OCc1ccccc1)c1cn2c(=O)n(Cc3ccccc3)c(=O)cc2s1 [Example 1]
Result: 96 µM

Query: Requested field: IC50. Item: COC(=O)c1ccc(Cn2c(=O)c(C)c3sc(C(=O)NCc4ccc(F)cc4)cn3c2=O)cc1 [Example 106]
Result: > 30 µM

Query: Requested field: IC50. Item: O=C(NCc1ccccc1)c1cn2c(=O)n(Cc3ccc(Cl)cc3)c(=O)cc2s1 [Example 13]
Result: > 100 µM

Query: Requested field: IC50. Item: COc1ccc(CNC(=O)c2cn3c(=O)n(Cc4ccccc4)c(=O)c(C)c3s2)cc1F [Example 46]
Result: > 30 µM

Query: Requested field: IC50. Item: Cc1c(=O)n(Cc2ccc(C(=O)N3CCOCC3)cc2)c(=O)n2cc(C(=O)NCc3ccc(F)cc3)sc12 [Example 76]
Result: > 30 µM

---

compounds and their reported IC50
Molecular target: MMP-13CD (catalytic domain of collagenase 3) (Homo sapiens)
Assay: Thiopeptolide substrate hydrolysis assay, MMP-13CD
Type: biochemical
Conditions: thiopeptolide substrate, HEPES pH 7.0, 22° C.; read-out: IC50 (μM) Versus Certain MMPs: MMP-13 CD
Source text: Thiopeptolide substrates show virtually no decomposition or hydrolysis at or below neutral pH in the absence of a matrix metalloproteinase enzyme.
Structures can show the parent of a compound that is named as a salt.

Recorded results for 2 compounds are shown here.
Cc1c(=O)n(Cc2ccccc2)c(=O)n2cc(C(=O)NCc3ccc(Cl)cc3Cl)sc12	> 30 µM
Cc1c(=O)n(Cc2ccccc2)c(=O)n2cc(C(=O)NCc3cscn3)sc12 [Example 35, hydrochloride]	> 100 µM

Query: Recorded IC50 for "O=c1cc2sccn2c(=O)n1Cc1ccc(Cl)cc1" with MMP-13CD (catalytic domain of collagenase 3) (Homo sapiens), please?
Result: > 100 µM

---

Target: MMP-3CD (catalytic domain of stromelysin-1) (Homo sapiens)
Sequence (P08254 100-272 limits assumed): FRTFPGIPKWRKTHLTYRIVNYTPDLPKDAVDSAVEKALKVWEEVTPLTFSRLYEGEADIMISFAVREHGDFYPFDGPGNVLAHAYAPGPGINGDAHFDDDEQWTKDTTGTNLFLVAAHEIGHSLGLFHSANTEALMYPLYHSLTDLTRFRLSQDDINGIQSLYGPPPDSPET
Experiment: Thiopeptolide substrate hydrolysis assay, MMP-3CD
Assay type: biochemical
Settings: MES buffer pH 6.0, read-out: IC50 (μM) Versus Certain MMPs: MMP-03 CD
Counter-ions that a name gives are not always drawn.
Test Readout: IC50

Recorded results for 2 compounds are shown here.
O=C(OCc1ccncc1)C1Cn2c(cc(=O)n(Cc3ccccc3)c2=O)S1 (stereo not drawn) [Example 21, hydrochloride]	> 100 µM
Cc1c(C(=O)OCc2ccccc2)sc2cc(=O)n(Cc3ccccc3)c(=O)n12	> 100 µM

Query: Recorded IC50 for "COC(=O)c1nc(Cn2c(=O)c(C)c3sc(C(=O)NCc4ccc(F)cc4)cn3c2=O)ncc1OC" with MMP-3CD (catalytic domain of stromelysin-1) (Homo sapiens), please?
Result: > 30 µM

---

Target: MMP-9FL (full length Gelatinase B) (Homo sapiens)
Sequence (P14780 94-707, species assumed): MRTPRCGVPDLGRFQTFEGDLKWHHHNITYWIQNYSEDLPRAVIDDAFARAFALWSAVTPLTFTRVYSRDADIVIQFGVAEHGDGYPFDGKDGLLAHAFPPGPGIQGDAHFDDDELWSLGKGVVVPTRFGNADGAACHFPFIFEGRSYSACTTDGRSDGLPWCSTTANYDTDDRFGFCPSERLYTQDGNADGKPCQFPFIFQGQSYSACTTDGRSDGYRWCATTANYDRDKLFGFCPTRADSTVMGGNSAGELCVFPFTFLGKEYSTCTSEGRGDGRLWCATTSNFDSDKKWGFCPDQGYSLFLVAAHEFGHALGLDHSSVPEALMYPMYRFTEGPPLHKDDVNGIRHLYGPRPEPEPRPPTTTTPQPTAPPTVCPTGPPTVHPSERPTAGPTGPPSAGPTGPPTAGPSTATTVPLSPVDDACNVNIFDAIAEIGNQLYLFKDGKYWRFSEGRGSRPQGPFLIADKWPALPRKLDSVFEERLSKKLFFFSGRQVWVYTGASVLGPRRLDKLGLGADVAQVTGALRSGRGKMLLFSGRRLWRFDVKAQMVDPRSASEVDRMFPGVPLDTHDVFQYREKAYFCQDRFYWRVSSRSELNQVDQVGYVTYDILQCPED
Assay: Thiopeptolide substrate hydrolysis assay, MMP-9FL
Format: biochemical
Settings: HEPES pH 7.0, 22° C., read-out: IC50 (μM) Versus Certain MMPs: MMP-09 FL
Structures can show the parent of a compound that is named as a salt.
Test Readout: IC50

Recorded results for 2 molecules are shown here.
Cc1c(=O)n(Cc2ccc(-c3nn[nH]n3)cc2)c(=O)n2cc(C(=O)NCc3ccc(F)cc3)sc12	> 100 µM
COC(=O)c1nc(Cn2c(=O)c(C)c3sc(C(=O)NCc4ccc(F)cc4)cn3c2=O)ncc1OC	> 30 µM

Query: Requested field: IC50. Item: "Cc1c(=O)n(Cc2ccccc2)c(=O)n2cc(C(=O)NCc3ccc4nsnc4c3)sc12"
Result: > 30 µM

Query: Requested field: IC50. Item: "Cc1c(=O)n(Cc2ccccc2)c(=O)n2cc(C(=O)NCc3ccc(Cl)c(Cl)c3)sc12"
Result: > 30 µM

Query: Requested field: IC50. Item: O=C(NCc1ccccc1)c1cn2c(=O)n(Cc3ccncc3)c(=O)cc2s1 [Example 15, hydrochloride]
Result: > 100 µM

Query: Requested field: IC50. Item: "Cc1c(=O)n(Cc2ccccc2)c(=O)n2cc(C(=O)NCc3ccc(F)cc3)sc12"
Result: > 30 µM

Query: Requested field: IC50. Item: Cc1c(=O)n(Cc2ccc(C(=O)N3CCOCC3)cc2)c(=O)n2cc(C(=O)NCc3ccncc3)sc12 [Example 73, hydrochloride]
Result: > 100 µM

Query: Requested field: IC50. Item: O=C(NCc1ccncc1)c1cn2c(=O)n(Cc3ccccc3)c(=O)cc2s1 [Example 9, hydrochloride]
Result: > 100 µM

Query: Requested field: IC50. Item: "Cc1ccc(CNC(=O)c2cn3c(=O)n(Cc4ccccc4)c(=O)c(C)c3s2)cc1"
Result: > 100 µM

Query: Requested field: IC50. Item: "COc1cc(CNC(=O)c2cn3c(=O)n(Cc4ccccc4)c(=O)c(C)c3s2)ccn1"
Result: > 30 µM

Query: Requested field: IC50. Item: "COc1ccc(CNC(=O)c2cn3c(=O)n(Cc4ccccc4)c(=O)c(C)c3s2)cc1"
Result: > 30 µM
